System: Saccharomyces cerevisiae
TEST: protein stability index of tFT-peptide fusion (C-terminal peptide) (PSI (0-1 scale)); higher = more stable (slower turnover)
REPORTED CONDITIONS: genetic background: wild type; temperature: 30 C
# cutoff 0.7 applies to protein stability index; >= gives TRUE, < gives FALSE

| ITEM SEQUENCE | ASSIGNED CLASS |
| --- | --- |
| DGELFPDEPFYL | TRUE |
| AKVSFYALARQY | FALSE |
| PSLPCPVLVFSL | FALSE |
| PAPPSHLLLPLL | TRUE |
| SCFCFRVLLCSF | FALSE |
| SWFRRPFPPRLL | FALSE |
| PPLPPVCPSPSL | FALSE |
| KIKKTITKNTKR | TRUE |
| DAWPPVRTVVIN | FALSE |
| PPGYGISYLLIE | FALSE |
| TFDNEYKRSRKV | FALSE |
| GKREGRGRKRGG | TRUE |
| GGLVVYVWGRWS | FALSE |
| EMEHANDARRVS | FALSE |
| DQTKMKKIAKVE | FALSE |
| LGSITDRLLRRR | TRUE |
| LHRFTYAEVVWA | FALSE |
| GGRVGGSMGVGG | FALSE |
| VAYYFVRNIIGE | FALSE |
| VMVTMGNMDSEA | FALSE |
| LGVWVGGRGVRG | TRUE |
| LLLTLVFSFLSC | FALSE |
| GPSPFHPPPPER | FALSE |
| GGWHVVGGEGVG | FALSE |
| RDCPVTPGTLFS | TRUE |
| NRRCAPVHPGPD | TRUE |
| SRFRKSSGLLLK | TRUE |
| WCGLRVGGGGMW | TRUE |
| RWAQVAEGGEGR | TRUE |
| LSLLCFVASVVA | FALSE |
| VIFIRCFNFQDG | FALSE |
| PHLAAPAPALQD | FALSE |

---

Test system: Saccharomyces cerevisiae
TEST: protein stability index of tFT-peptide fusion (C-terminal peptide) (PSI (0-1 scale)); higher = more stable (slower turnover)
REPORTED CONDITIONS: genetic background: wild type; temperature: 30 C
The threshold is inclusive: protein stability index of exactly 0.7 counts as yes; values below receive no.

| ITEM SEQUENCE | TARGET OR TEST SYSTEM | ASSIGNED CLASS |
| --- | --- | --- |
| RTTAGINAFPGV | Saccharomyces cerevisiae | no |
| PLYTSFSPSFYL | Saccharomyces cerevisiae | no |
| ALRSGHALPFGF | Saccharomyces cerevisiae | no |
| RVHRSVVGYRRC | Saccharomyces cerevisiae | no |
| LGYRCETNYVPD | Saccharomyces cerevisiae | no |
| SQCVVYLSVRFS | Saccharomyces cerevisiae | no |
| DLPKAYCIEMIG | Saccharomyces cerevisiae | no |
| GSVCCLSLHCFV | Saccharomyces cerevisiae | no |
| CLRVSFFFWLFA | Saccharomyces cerevisiae | no |
| NMLYRKEGWTKE | Saccharomyces cerevisiae | no |
| RRVRRRRTGGAW | Saccharomyces cerevisiae | no |
| LPHCPLNVFPLV | Saccharomyces cerevisiae | no |
| LAGPYGRVTVFF | Saccharomyces cerevisiae | no |
| TLCTSPWGVVAV | Saccharomyces cerevisiae | no |
| RWSVIHARLLSP | Saccharomyces cerevisiae | yes |
| VCQVCVCFLFWR | Saccharomyces cerevisiae | no |
| AQELPGGAGGDG | Saccharomyces cerevisiae | no |
| VQWSRFRVGMAE | Saccharomyces cerevisiae | yes |
| FALSSSLIRAFL | Saccharomyces cerevisiae | yes |
| NVNNNICTYRAI | Saccharomyces cerevisiae | no |
| KKNEKGSKGAEY | Saccharomyces cerevisiae | no |
| EYVKFGMEHILE | Saccharomyces cerevisiae | no |
| WLCLFRFLGVAY | Saccharomyces cerevisiae | no |
| SWECRGMGVCGG | Saccharomyces cerevisiae | yes |
| VQSSLFGLGVQC | Saccharomyces cerevisiae | no |
| GLWLCRGLVRAW | Saccharomyces cerevisiae | no |
| VFLISPSSFSPP | Saccharomyces cerevisiae | yes |
| GGVAADGGGGRG | Saccharomyces cerevisiae | no |
| PSCRPPLLHPDS | Saccharomyces cerevisiae | yes |
| LVRCGLGASVVV | Saccharomyces cerevisiae | no |
| SAGLLFFSFPPL | Saccharomyces cerevisiae | yes |
| SLLPPPPPPAPS | Saccharomyces cerevisiae | no |
| TALFRLRRPRLR | Saccharomyces cerevisiae | yes |
| CGVCRGSCGGYG | Saccharomyces cerevisiae | no |
| GVLHSKGPWFSG | Saccharomyces cerevisiae | yes |
| SWVELCSQEVVI | Saccharomyces cerevisiae | no |
| AFSRCITVRVVH | Saccharomyces cerevisiae | no |
| VLTSRCGLLFVL | Saccharomyces cerevisiae | no |
| KWNVFRKGRGNI | Saccharomyces cerevisiae | yes |
| PLEPDFLIGGNA | Saccharomyces cerevisiae | yes |
| IRIKKQRKEKRK | Saccharomyces cerevisiae | yes |
| TSTHSFLDFGTG | Saccharomyces cerevisiae | no |

---

System: Saccharomyces cerevisiae
TEST: protein stability index of tFT-peptide fusion (C-terminal peptide) (PSI (0-1 scale)); higher = more stable (slower turnover)
REPORTED CONDITIONS: genetic background: wild type; temperature: 30 C
Kindly return y if reported protein stability index is no lower than 0.7; return n if it is lower.

| ITEM SEQUENCE | ASSIGNED CLASS |
| --- | --- |
| FFCYFFEFFICG | n |
| PRGGLGTGWGRR | y |
| FFLGAPVRQFFF | n |
| RYENRGRMKRER | n |
| VGRGEEAHTPRR | n |
| ILDRRTKREDLK | n |
| SFPLLFPVSSRL | y |
| EGLTYIPCQTDC | y |
| WFDCGSACFGYL | y |
| EETTSNLGLKVN | n |
| FVLRFVLSLVFF | n |
| GNTNIYIVMRES | n |
| REVYLFSSSCRG | n |
| SVPYALPTTPPR | n |
| ALFLDFCFPCLP | n |
| SCLFMLFPLVSV | n |
| LTDKHNETNINQ | n |
| GCCGQGLPWNPP | n |
| AISPLLPSFSPP | n |
| SRRRRGRGEWFG | y |
| SPGCPNRGAFEI | y |
| FVPLFVFSCSRS | n |
| KKKKKQRGKKQK | y |
| PDPTLPTPSRPP | n |
| SPRGPLVICHHP | y |
| PLPSVLFCLTRW | n |
| QSPATIPFASHR | y |
| CISPPRHAPPPP | n |
| PLPCLPPAGSTP | y |
| SSPTRARLFFPH | n |
| CFLLSYRWVFLC | n |
| RYKCSQWHNGLT | y |
| PCDWEGCVAMNV | n |
| LQCVYFVFFICF | n |
| LCLFPSSFRLPP | n |
| PPPLPAPPFSVF | n |
| PSPPPTPPPPTP | y |
| LTFSRFIENHYL | n |
| EATCSPCPTRVV | n |
| IVEVNCILMWIF | n |

---

System: Saccharomyces cerevisiae;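 note: PSI is a weighted mean of sequencing reads over stability bins, variants kept only with over 10 reads, mCherry proximal and sfGFP distal, peptide attached via GGGS linker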
TEST: protein stability index of tFT-peptide fusion (C-terminal peptide) (PSI (0-1 scale)); higher = more stable (slower turnover)
REPORTED CONDITIONS: genetic background: wild type; temperature: 30 C
Recorded protein stability index, one value per entry.
QUANTITY: protein stability index

| ITEM SEQUENCE | QUANTITY | OBSERVED RESULT |
| --- | --- | --- |
| GCGGAWGVWDGV | protein stability index | 0.729 |
| AAEKSPQQADAD | protein stability index | 0.709 |
| HVHLHSTTAPPP | protein stability index | 0.695 |
| PSLLPSRPPRSI | protein stability index | 0.648 |
| GGGGGGACRPVG | protein stability index | 0.659 |
| LPTHYHQSHTEP | protein stability index | 0.681 |
| SVGSLLAFLHRR | protein stability index | 0.683 |
| PPPSRPPQLHPA | protein stability index | 0.605 |
| RCPQHCDLSVYV | protein stability index | 0.681 |
| SCGKGVGRWRLG | protein stability index | 0.672 |
| LRGAGAGPEDVG | protein stability index | 0.685 |
| PLSPSAVGCPGF | protein stability index | 0.645 |
| KLKEDRRIGRNR | protein stability index | 0.668 |
| TLCFSFPVPGFL | protein stability index | 0.723 |
| AYLNPFTSALTA | protein stability index | 0.616 |
| GKFKKRIRRGIK | protein stability index | 0.695 |
| EPEPALTSAPPA | protein stability index | 0.715 |
| LVPTQGDFVVLL | protein stability index | 0.721 |
| VLLAAFLLPGLR | protein stability index | 0.634 |
| WFCRFTGGRRLL | protein stability index | 0.671 |
| GRYRNDVAVLNF | protein stability index | 0.683 |
| TVSRNKKKKQIQ | protein stability index | 0.613 |
| SMGGRVGDLACQ | protein stability index | 0.725 |
| EMPRLSKAIRVT | protein stability index | 0.44 |
| SRLGVIRGIGLV | protein stability index | 0.67 |
| LFFCYRVFLLVF | protein stability index | 0.185 |
| VLGWGSKCLVGS | protein stability index | 0.7 |
| MSWSVSDIADDS | protein stability index | 0.657 |
| GNNPDHAYTSNI | protein stability index | 0.682 |
| TGTPGAVRRGGA | protein stability index | 0.727 |
| LGSCRCFAFVSL | protein stability index | 0.659 |
| WLGTIVCGRGWW | protein stability index | 0.7 |
| YCLLGHIYKPLS | protein stability index | 0.679 |
| PHPLPLPLPLSP | protein stability index | 0.713 |
| PSPPPAVLPPPP | protein stability index | 0.693 |
| PPPPLPASHPSP | protein stability index | 0.707 |
| PDAGTSSLQTLT | protein stability index | 0.722 |
| GSLCAVWWCWRG | protein stability index | 0.637 |
| SVVVIGSSYASG | protein stability index | 0.59 |
| KSDTAWSHPYPS | protein stability index | 0.679 |
| SLSPPPLSPSPP | protein stability index | 0.627 |
| RKEEKKEGKGTR | protein stability index | 0.663 |
| RSFPCITVFIRA | protein stability index | 0.424 |
| FDSVAVLYSGGV | protein stability index | 0.66 |
| CSHPHPSSNLPS | protein stability index | 0.683 |
| VNFGWWVVGSRS | protein stability index | 0.685 |
| RYANGVLHIGSN | protein stability index | 0.659 |
| PPPPHAPSASPP | protein stability index | 0.668 |
| CFPALSSRTFPS | protein stability index | 0.752 |
| QDHIGSTEGYKH | protein stability index | 0.663 |
| PLRYRPPPPPPP | protein stability index | 0.672 |
| GRVRLGMKETLS | protein stability index | 0.713 |
| PSILPPPSSCPP | protein stability index | 0.767 |
| SLSPGLPPVLLT | protein stability index | 0.666 |
| SKLRDFHVLVTH | protein stability index | 0.611 |
| VRGDRRHRGVWG | protein stability index | 0.709 |
| PALPPPAPLPLS | protein stability index | 0.673 |
| QPYHSSPSPRTI | protein stability index | 0.717 |
| GGVGRGADASLA | protein stability index | 0.622 |
| LLSAFPYLPVFA | protein stability index | 0.337 |
| CGRERIEGGGGD | protein stability index | 0.643 |
| GLDEVKVVSKKK | protein stability index | 0.689 |
| FCLLRYPFVGVL | protein stability index | 0.415 |
| GKKNNENKYDMR | protein stability index | 0.73 |
| VYCLFLPLGVAF | protein stability index | 0.27 |
| SIKKKQKIKLTK | protein stability index | 0.689 |
| SMSSERYIKRGN | protein stability index | 0.702 |
| PPPPPPLPAPPH | protein stability index | 0.693 |
| PPPPPPQTPRPR | protein stability index | 0.683 |
